Target: U2AF65 1,2L Q147A (human, UniProt P26368 141-342, Q147A)
Sequence (P26368 141-342 Q147A, one chain of several): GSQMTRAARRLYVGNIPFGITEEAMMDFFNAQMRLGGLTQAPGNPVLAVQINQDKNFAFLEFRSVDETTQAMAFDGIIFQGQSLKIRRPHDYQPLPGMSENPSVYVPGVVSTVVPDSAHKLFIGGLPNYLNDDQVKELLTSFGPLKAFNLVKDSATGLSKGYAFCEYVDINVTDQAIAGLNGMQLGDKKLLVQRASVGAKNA
Experiment: fluorescence anisotropy; Anisotropy: 100 mM NaCl, 15 mM HEPES pH 6.8, 0.2 mM TCEP, 0.1 U/ul Superase-In, 30 nM RNA, 23 C; smFRET: 50 mM HEPES pH 7.4, 100 mM NaCl, room temperature
METRIC NAME: Kd (nM)

BINDER | METRIC NAME | MEASURED NUMBER
CCCUUUUUUUUCC (ssRNA) [AdML Py tract 13mer] | Kd | 171
